Where these numbers come from: patent US20180186742A1

tested on: Zymoseptoria tritici; assay: Leaf blotch of wheat (SEPTTR), disease control on wheat seedlings; format: in vivo; settings: 24 h, low volume application at 121.5 g/H, 1 Day Protectant, wheat leaf blotch, read-out: SEPTTR 1DP disease control, LV activity
# Lookup of reported pest or weed control at 121.5 g/ha keyed by entry
observation.type: pest or weed control at 121.5 g/ha

• COc1ccnc(C(=O)N[C@@H](C)C(=O)O[C@@H](C)[C@H](c2ccc(OC(F)(F)F)cc2)C(C)C)c1OC(C)=O = > 80%
• COc1ccnc(C(=O)N[C@@H](C)C(=O)O[C@@H](C)[C@@H](c2ccc(Cl)cc2Cl)C(C)C)c1OC(C)=O = < 80%
• COc1ccnc(C(=O)N[C@@H](C)C(=O)O[C@@H](C)[C@H](c2c(F)cccc2Cl)C(C)C)c1OC(C)=O = > 80%
• COc1ccnc(C(=O)N[C@@H](C)C(=O)O[C@@H](C)[C@H](c2ccc(F)cc2C)C(C)C)c1OC(=O)C(C)(C)C = > 80%
• COc1ccnc(C(=O)N[C@@H](C)C(=O)O[C@@H](C)[C@@H](c2ccc(F)cc2F)C(C)C)c1OC(C)=O = < 80%
• COc1ccnc(C(=O)N[C@@H](C)C(=O)O[C@@H](C)[C@H](c2ccc(C)cc2F)C(C)C)c1OC(C)=O = < 80%
• COc1ccnc(C(=O)N[C@@H](C)C(=O)O[C@@H](C)[C@@H](c2ccc(C)cc2F)C(C)C)c1OC(C)=O = < 80%
• COc1ccc([C@H](C(C)C)[C@H](C)OC(=O)[C@H](C)NC(=O)c2nccc(OC)c2OC(C)=O)cc1 = < 80%
• COc1ccnc(C(=O)N[C@@H](C)C(=O)O[C@@H](C)[C@H](c2ccccc2OC(C)C)C(C)C)c1OC(C)=O = < 80%
• COc1ccnc(C(=O)N[C@@H](C)C(=O)O[C@@H](C)[C@H](c2cccc(C)c2)C(C)C)c1OC(C)=O = < 80%
• COc1ccnc(C(=O)N[C@@H](C)C(=O)O[C@@H](C)[C@H](c2cc(F)ccc2F)C(C)C)c1OC(C)=O = < 80%
• COc1ccnc(C(=O)N[C@@H](C)C(=O)O[C@@H](C)[C@H](c2ccc(F)cc2F)C(C)C)c1OC(C)=O = > 80%

###

Measured pest or weed control at 121.5 g/ha by item
system: Puccinia triticina; test: Wheat brown rust (PUCCRT), disease control on wheat seedlings; format: in vivo; settings: 72 h, low volume application at 121.5 g/H, 3 Day Curative, read-out: PUCCRT disease control, 3DC, LV activity
observation.type: pest or weed control at 121.5 g/ha

- COCCC(=O)Oc1c(OC)ccnc1C(=O)N[C@@H](C)C(=O)O[C@@H](C)[C@H](c1ccc(F)cc1OC)C(C)C: > 80%
- CCC(CC)[C@@H](c1ccc(F)cc1OC)[C@H](C)OC(=O)[C@H](C)NC(=O)c1nccc(OC)c1OC(C)=O: < 80%
- COc1ccnc(C(=O)N[C@@H](C)C(=O)OC(C)[C@H](c2ccccc2)C2CCCC2)c1OCOC(C)=O (stereo partly drawn): > 80%

###

Let's look at some compounds and their measured pest or weed control at 100 ppm.
test system: Puccinia triticina; assay: Wheat brown rust (PUCCRT), disease control on wheat seedlings; format: in vivo; conditions: 72 h, high volume application at 100 ppm, 3 Day Curative, read-out: PUCCRT disease control, 3DC, HV activity
observation.type: pest or weed control at 100 ppm

* CCC(C)[C@H](c1ccc(F)cc1OC)[C@H](C)OC(=O)[C@H](C)NC(=O)c1nccc(OC)c1O (stereo partly drawn) [Compound 141] | > 80%
* COc1ccnc(C(=O)N[C@@H](C)C(=O)O[C@@H](C)[C@H](c2ccccc2F)C(C)C)c1O [Compound 323] | > 80%
* COc1ccnc(C(=O)N[C@@H](C)C(=O)O[C@@H](C)[C@@H](c2ccc(F)cc2C)C2CCC2)c1O [Compound 121] | < 80%
* COc1ccnc(C(=O)N[C@@H](C)C(=O)O[C@@H](C)[C@@H](c2ccc(F)cc2C)C2CCCC2)c1O [Compound 118] | < 80%
* COc1ccnc(C(=O)N[C@@H](C)C(=O)O[C@@H](C)[C@H](c2ccccc2C)C(C)C)c1O [Compound 327] | > 80%
* CCC(CC)[C@H](c1ccc(F)cc1C)[C@H](C)OC(=O)[C@H](C)NC(=O)c1nccc(OC)c1O [Compound 117] | < 0%
* COc1ccnc(C(=O)N[C@@H](C)C(=O)O[C@H](C)[C@H](c2ccc(F)cc2C)C(C)C)c1O [Compound 130] | < 80%
* COc1ccnc(C(=O)N[C@@H](C)C(=O)O[C@@H](C)[C@H](c2ccc(F)cc2)C(C)C)c1O [Compound 135] | > 80%
* COc1ccnc(C(=O)N[C@@H](C)C(=O)O[C@@H](C)[C@@H](c2ccc(C)cc2C)C(C)C)c1O [Compound 131] | > 80%
* COc1ccnc(C(=O)N[C@@H](C)C(=O)O[C@@H](C)[C@H](c2ccc(F)cc2C)C2CCCC2)c1O [Compound 122] | > 80%
* CCC(C)[C@@H](c1ccc(F)cc1C)[C@H](C)OC(=O)[C@H](C)NC(=O)c1nccc(OC)c1O (stereo partly drawn) [Compound 126] | < 80%
* COc1ccnc(C(=S)N[C@@H](C)C(=O)OC(C)[C@H](c2ccccc2)C2CCCC2)c1O (stereo partly drawn) [Compound 114] | < 80%
* COc1ccnc(C(=S)N[C@@H](C)C(=O)O[C@@H](C)[C@H](c2ccc(F)cc2C)C(C)C)c1O [Compound 136] | > 80%
* COc1ccnc(C(=O)N[C@@H](C)C(=O)O[C@@H](C)[C@@H](c2ccccc2)C(C)C)c1O [Compound 105] | < 0%
* CCC(C)[C@@H](c1ccc(F)cc1OC)[C@H](C)OC(=O)[C@H](C)NC(=O)c1nccc(OC)c1O (stereo partly drawn) [Compound 146] | > 80%
* COc1cc(F)ccc1[C@H](C(C)C)[C@H](C)OC(=O)[C@H](C)NC(=O)c1nccc(OC)c1O [Compound 148] | > 80%
* COc1ccnc(C(=O)N[C@@H](C)C(=O)O[C@@H](C)[C@@H](c2ccc(C)cc2C)C2CCCC2)c1O [Compound 132] | > 80%
* COc1ccnc(C(=O)N[C@@H](C)C(=O)O[C@@H](C)[C@H](c2ccc(C)cc2C)C(C)C)c1O [Compound 325] | > 80%
